- Test system: Escherichia coli TOP10
- assayComment: shrunken log2 fold change of peptide-encoding DNA abundance (4.5 h post-induction vs induction); higher = less antimicrobial activity (less host growth inhibition)
- appliedConditions: time post-induction: 4.5 h; library: site-saturation at positions 5, 18, 19, 20
readout: shrunken log2 fold change

Solved cases below.
[[record]]
polymersequence = "RRIRNRPPRLPRPRPRPGREPRP"
readout = "shrunken log2 fold change"
obsvalue = 0.588

[[record]]
polymersequence = "RRIRFRPPRLPRPRPRPALDPRP"
readout = "shrunken log2 fold change"
obsvalue = 0.436

[[record]]
polymersequence = "RRIRARPPRLPRPRPRPMAAPRP"
readout = "shrunken log2 fold change"
obsvalue = 3.13

[[record]]
polymersequence = "RRIRDRPPRLPRPRPRPEAKPRP"
readout = "shrunken log2 fold change"
obsvalue = 2.4

[[record]]
polymersequence = "RRIRVRPPRLPRPRPRPSSLPRP"
readout = "shrunken log2 fold change"
obsvalue = -0.334


Request: shrunken log2 fold change, test system Escherichia coli TOP10, entry `RRIRGRPPRLPRPRPRPGHEPRP`
0.202

Next up: `RRIRIRPPRLPRPRPRPTARPRP`
0.0575

Input `RRIRCRPPRLPRPRPRPQVNPRP`
-0.246

* * *

shrunken log2 fold change by entry:
- Tested on: Escherichia coli TOP10
- assayComment: shrunken log2 fold change of peptide-encoding DNA abundance (4.5 h post-induction vs induction); higher = less antimicrobial activity (less host growth inhibition)
- appliedConditions: time post-induction: 4.5 h; library: site-saturation at positions 5, 18, 19, 20
The answer should be written as a number, with no unit following it.

[[record]]
polymersequence = "RRIRGRPPRLPRPRPRPCAYPRP"
obsvalue = 0.0946


// map `RRIRWRPPRLPRPRPRPNSFPRP` to recorded shrunken log2 fold change (system: Escherichia coli TOP10)
-0.0131

One more sequence: `RRIRYRPPRLPRPRPRPDKHPRP`
-0.692

Follow-up entry: `RRIRQRPPRLPRPRPRPSFHPRP`
-0.351

Can you check `RRIRYRPPRLPRPRPRPENSPRP` next?
-0.0207

* * *

- Test system: Escherichia coli TOP10
- assayComment: shrunken log2 fold change of peptide-encoding DNA abundance (4.5 h post-induction vs induction); higher = less antimicrobial activity (less host growth inhibition)
- appliedConditions: time post-induction: 4.5 h; library: site-saturation at positions 5, 18, 19, 20
Let's look at some sequences and their measured shrunken log2 fold change.
Just the number.

Use the examples below as a reference point.
[[record]]
polymersequence = "RRIRRRPPRLPRPRPRPPSQPRP"
readout = "shrunken log2 fold change"
obsvalue = 0.46

[[record]]
polymersequence = "RRIRVRPPRLPRPRPRPAWNPRP"
readout = "shrunken log2 fold change"
obsvalue = 0.219


Item under review: `RRIRCRPPRLPRPRPRPILLPRP` . Reported shrunken log2 fold change?
-1.03

* * *

- Tested on: Escherichia coli TOP10;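 note: peptides expressed intracellularly from a pBAD plasmid library in pooled LB shake-flask culture, induced with 0.3% L-arabinose, DNA abundance read by NGS, three biological replicates, DESeq2 with apeglm shrinkage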
- assayComment: shrunken log2 fold change of peptide-encoding DNA abundance (4.5 h post-induction vs induction); higher = less antimicrobial activity (less host growth inhibition)
- appliedConditions: time post-induction: 4.5 h; library: site-saturation at positions 5, 18, 19, 20
readout: shrunken log2 fold change
I only need the number, thanks.

Below, each entry is followed by its recorded shrunken log2 fold change result.
[[record]]
polymersequence = "RRIRQRPPRLPRPRPRPCRCPRP"
experimentalsystem = "Escherichia coli TOP10"
readout = "shrunken log2 fold change"
obsvalue = -0.0134

[[record]]
polymersequence = "RRIRWRPPRLPRPRPRPNWWPRP"
experimentalsystem = "Escherichia coli TOP10"
readout = "shrunken log2 fold change"
obsvalue = 0.182


Next up:
Reported shrunken log2 fold change, sequence `RRIRFRPPRLPRPRPRPPIQPRP` : ____
0.0333
